The compounds listed here are annotated with their IC50.
experiment: MTT cytotoxicity assay in A549 cells, in the dark; assay type: cell-based; conditions: human

Field: example entries. Status: answers known.
>>> value_measured("O=C(NCCCCCCCC[P+](c1ccccc1)(c1ccccc1)c1ccccc1)c1ccc(C(=O)Oc2cc3ccccc3cc2C(=O)O)cc1 [Compound 5]")
"69.1 µM"
>>> value_measured("O=C(NCCCCCCCC[P+](c1ccccc1)(c1ccccc1)c1ccccc1)c1ccc(-c2oc3cc4ccccc4cc3c(=O)c2O)cc1 [Compound 3]")
"8.48 µM"
>>> value_measured("O=C(O)CC[P+](c1ccccc1)(c1ccccc1)c1ccccc1.[Br-] [TPPBr, reference compound]")
"> 100 µM"

Measured IC50 of O=C(NCC[P+](c1ccccc1)(c1ccccc1)c1ccccc1)c1ccc(-c2oc3cc4ccccc4cc3c(=O)c2O)cc1.[Br-] [Compound 2] : 14.1 µM

Measured IC50 of O=C(NCC[P+](c1ccccc1)(c1ccccc1)c1ccccc1)c1ccc(C(=O)Oc2cc3ccccc3cc2C(=O)O)cc1.[Br-] [Compound 4] : > 100 µM
